test system: Cavia porcellus; test: Inhibition of PAF-induced bronchoconstriction in guinea pig after oral administration after two-hour pretreatment time; type: functional; conditions: read-out: ID50 (the source's name)
measurement-name: ED50 (mg/kg)
Numeric only. Scale: mg/kg

Ask | Need ED50, item Cc1nnc2n1-c1sc(C#CCn3c(=O)c4ccccc4c4ccccc43)cc1C(c1ccccc1Cl)=NC2C (stereo not given)
Reply | 0.03

Ask | Same read-out for Cc1nnc2n1-c1sc(CCC(=O)N3CCOCC3)cc1C(c1ccccc1Cl)=NC2 [APAFANT] ?
Reply | 1.2

Ask | Same read-out for `Cc1nnc2n1-c1sc(C#CCN3C(=O)c4cccc5cccc3c45)cc1C(c1ccccc1Cl)=NC2` ?
Reply | 0.04

Ask | Same read-out for `Cc1nnc2n1-c1sc(C#CCn3ccc4ccccc4c3=O)cc1C(c1ccccc1Cl)=NC2` ?
Reply | 0.03

Ask | Same read-out for `Cc1nnc2n1-c1sc(C#CCn3c(=O)n(C)c(=O)c4ccccc43)cc1C(c1ccccc1Cl)=NC2` ?
Reply | 0.02
